# TESTED SYSTEM: equine serum BChE (Equus caballus, UniProt P81908)
# Construct: the equine serum BChE, and the porcine liver CES
# Sequence (P81908 whole entry): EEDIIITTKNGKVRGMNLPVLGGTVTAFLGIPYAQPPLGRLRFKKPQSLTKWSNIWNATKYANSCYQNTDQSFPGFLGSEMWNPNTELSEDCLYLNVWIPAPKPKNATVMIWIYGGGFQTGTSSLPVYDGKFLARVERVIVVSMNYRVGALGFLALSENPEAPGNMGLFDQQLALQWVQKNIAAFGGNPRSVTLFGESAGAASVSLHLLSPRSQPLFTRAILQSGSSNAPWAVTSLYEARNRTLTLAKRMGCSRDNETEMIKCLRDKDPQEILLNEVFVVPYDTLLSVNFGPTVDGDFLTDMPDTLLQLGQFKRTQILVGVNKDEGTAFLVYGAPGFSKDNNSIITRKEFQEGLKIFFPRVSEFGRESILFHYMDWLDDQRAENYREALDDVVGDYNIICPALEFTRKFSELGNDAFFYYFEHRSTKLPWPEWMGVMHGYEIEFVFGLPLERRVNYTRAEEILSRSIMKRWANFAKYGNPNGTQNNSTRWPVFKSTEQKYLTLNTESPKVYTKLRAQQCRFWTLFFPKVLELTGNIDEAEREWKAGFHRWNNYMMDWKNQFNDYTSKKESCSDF
# PROTOCOL NOTES: biochemical
# COND: IC50 ± SEM, n = 3
PROPERTY: IC50 (µM)
Numbers only, in µM.

COMPOUND | TESTED SYSTEM | IC50 [µM]
CN(C)c1ccc2c(c1)Sc1cc(N(C)C)ccc1N2C(=O)CCn1c2c(c3ccccc31)CCCCC2 | equine serum BChE (Equus caballus, UniProt P81908) | 9.98
CC1CCc2c(c3cc(OC(F)(F)F)ccc3n2CCC(=O)N2c3ccc(N(C)C)cc3Sc3cc(N(C)C)ccc32)C1 (stereo not shown) | equine serum BChE (Equus caballus, UniProt P81908) | 6.07
CN(C)c1ccc2nc3ccc(=[N+](C)C)cc-3sc2c1 [MB, Methylene blue, reference compound] | equine serum BChE (Equus caballus, UniProt P81908) | 11.1
CN(C)c1ccc2c(c1)Sc1cc(N(C)C)ccc1N2C(=O)CCn1c2c(c3ccccc31)CCC2 | equine serum BChE (Equus caballus, UniProt P81908) | 42.1
CN(C)c1ccc2c(c1)Sc1cc(N(C)C)ccc1N2C(=O)CCn1c2c(c3ccccc31)CCCC2 | equine serum BChE (Equus caballus, UniProt P81908) | 48.7

I have 2 compounds here; please give me IC50 for each one.
1. CN(C)c1ccc2c(c1)Sc1cc(N(C)C)ccc1N2 [MBH2, reference compound]
2. CN(C)c1ccc2c(c1)Sc1cc(N(C)C)ccc1N2C(=O)CCn1c2c(c3cc(OC(F)(F)F)ccc31)CCCC2

1: 10.1; 2: 47.6
